Molecular target: Sphingosine 1-phosphate receptor 1 (Homo sapiens, UniProt P21453)
Sequence (P21453 whole entry): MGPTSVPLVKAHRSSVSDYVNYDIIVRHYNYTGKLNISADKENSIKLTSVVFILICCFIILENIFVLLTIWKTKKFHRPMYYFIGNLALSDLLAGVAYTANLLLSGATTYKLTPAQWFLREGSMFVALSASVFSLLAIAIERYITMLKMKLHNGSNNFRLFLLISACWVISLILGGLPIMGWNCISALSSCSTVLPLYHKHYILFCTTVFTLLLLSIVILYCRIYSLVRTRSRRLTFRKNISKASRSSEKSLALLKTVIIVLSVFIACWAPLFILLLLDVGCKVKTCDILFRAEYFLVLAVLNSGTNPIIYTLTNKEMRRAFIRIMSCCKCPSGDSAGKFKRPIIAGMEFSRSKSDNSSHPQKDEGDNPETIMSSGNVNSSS
Experiment: Agonist activity at S1P1 (unknown origin) expressed in human HEK293/Galpha15 cells assessed as Ca2+ activation at 1 uM measured for 2 hrs by FLIPR analysis relative to control
Assay type: functional, cell-based
Conditions: filed as agonist
Assign class by Activity: not lower than 60% means satisfied; lower than 60% means not satisfied.

compound=CC(C)Oc1ccc(COc2ccc3c(c2)OCCN(S(=O)(=O)CCO)C3)cc1C#N assigned_label=satisfied
compound=CC(C)Oc1ccc(COc2ccc3c(c2)CCN(S(=O)(=O)CCO)C3)cc1C#N assigned_label="not satisfied"
compound=CC(C)Oc1ccc(COc2ccc3c(c2)CCCN(S(=O)(=O)CCC(=O)O)C3)cc1C#N assigned_label=satisfied
compound=CC(C)Oc1ccc(COc2ccc3c(c2)CCN(S(=O)(=O)CCC(=O)O)C3)cc1C#N assigned_label=satisfied
compound=CC(C)Oc1ccc(COc2ccc3c(c2)OCCN(S(=O)(=O)CCC(=O)O)C3)cc1C#N assigned_label=satisfied
compound=CC(C)Oc1ccc(COc2ccc3c(c2)CCCN(S(=O)(=O)CC(=O)O)C3)cc1C#N assigned_label=satisfied
compound=CC(C)Oc1ccc(COc2ccc3c(c2)CCN(C(=O)CC(=O)O)C3)cc1C#N assigned_label=satisfied
compound=CC(=O)NCCCC(=O)N1CCc2cc(OCc3ccc(OC(C)C)c(C#N)c3)ccc2C1 assigned_label="not satisfied"
compound=CC(C)Oc1ccc(COc2ccc3c(c2)CCN(C(=O)CCC(=O)O)C3)cc1C#N assigned_label=satisfied
compound=CC(C)Oc1ccc(COc2ccc3c(c2)CCN(S(=O)(=O)CC(=O)O)C3)cc1C#N assigned_label=satisfied
compound="CC(C)Oc1ccc(COc2ccc3c(c2)CCN(C(=O)CCC(=O)O)C3C)cc1C#N (stereo not given)" assigned_label="not satisfied"
compound=COC(=O)CCN1CCc2cc(OCc3ccc(OC(C)C)c(C#N)c3)ccc2C1 assigned_label="not satisfied"
compound=CC(C)Oc1ccc(COc2ccc3c(c2)CCN(C(=O)CCC(N)=O)C3)cc1C#N assigned_label="not satisfied"
compound=CC(C)Oc1ccc(COc2ccc3c(c2)CCN(CC(=O)O)C3)cc1C#N assigned_label="not satisfied"
compound=CC(=O)NCCC(=O)N1CCc2cc(OCc3ccc(OC(C)C)c(C#N)c3)ccc2C1 assigned_label="not satisfied"
compound="CC(C)Oc1ccc(COc2ccc3c(c2)CCN(CCC(=O)O)C3C)cc1C#N (stereo not given)" assigned_label=satisfied
compound=CC(C)Oc1ccc(COc2ccc3c(c2)OCCN(S(=O)(=O)CC(=O)O)C3)cc1C#N assigned_label=satisfied
compound=CC(C)Oc1ccc(COc2ccc3c(c2)CCN(CCCC(=O)O)C3)cc1C#N assigned_label=satisfied
compound=CC(C)Oc1ccc(COc2ccc3c(c2)CCCN(S(=O)(=O)CCCO)C3)cc1C#N assigned_label=satisfied
compound=CC(C)Oc1ccc(COc2ccc3c(n2)CCN(S(=O)(=O)CCC(=O)O)C3)cc1C#N assigned_label=satisfied

---

Test: Half life in ICR mouse at 1 mg/kg, iv measured at 0.25 to 12 hrs by LC-MS/MS analysis
Type: ADME, organism-based
Conditions: in vivo, time 0.25-12 hrs
The following compounds are listed with their measured half-life values.
reported.property: half-life (h)

test_smiles=CC(C)Oc1ccc(COc2ccc3c(c2)CCCN(S(=O)(=O)CCC(=O)O)C3)cc1C#N reported_property=half-life readout_unit=h endpoint_result=0.6
test_smiles=CC(C)Oc1ccc(COc2ccc3c(c2)CCN(S(=O)(=O)CCC(=O)O)C3)cc1C#N reported_property=half-life readout_unit=h endpoint_result=2.4

---

Test: Cmax in ICR mouse at 10 mg/kg, po measured at 0.25 to 12 hrs by LC-MS/MS analysis
Format: ADME, organism-based
Parameters: time upper 12 hrs, dose 10 mg/kg, time lower 0.25 hrs, route po
Conditions: in vivo
Recorded Cmax by entry
reported.property: Cmax (ng/mL)

test_smiles=CC(C)Oc1ccc(COc2ccc3c(c2)CCCN(S(=O)(=O)CCC(=O)O)C3)cc1C#N reported_property=Cmax endpoint_result=1130
test_smiles=CC(C)Oc1ccc(COc2ccc3c(c2)CCN(S(=O)(=O)CCC(=O)O)C3)cc1C#N reported_property=Cmax endpoint_result=2290

---

Overview of reported remaining at 0.5 h across a group of compounds:
Assay: Microsomal stability in mouse liver microsomes assessed as parent compound remaining preincubated for 5 mins followed by NADPH addition measured after 30 mins by LC-MS/MS analysis
Format: ADME, Microsome
Conditions: time 35 min, read-out: Stability
reported.property: remaining at 0.5 h (%)

test_smiles=CC(C)Oc1ccc(COc2ccc3c(c2)CCN(CCC(=O)O)C3)cc1C#N endpoint_result=98.7
test_smiles=CC(C)Oc1ccc(COc2ccc3c(n2)CCN(S(=O)(=O)CCC(=O)O)C3)cc1C#N endpoint_result=94.2
test_smiles=CC(=O)NCCC(=O)N1CCc2cc(OCc3ccc(OC(C)C)c(C#N)c3)ccc2C1 endpoint_result=14.9
test_smiles=CC(C)Oc1ccc(COc2ccc3c(c2)CCN(C(=O)CCC(=O)O)C3)cc1C#N endpoint_result=100
test_smiles=CNC(=O)CCS(=O)(=O)N1CCc2cc(OCc3ccc(OC(C)C)c(C#N)c3)ccc2C1 endpoint_result=15.8

---

Item-by-item account of Activity
Molecular target: Sphingosine 1-phosphate receptor 1 (Homo sapiens, UniProt P21453)
Assay: Agonist activity at S1P1 (unknown origin) expressed in PathHunter CHO-K1 EDG1 beta-arrestin cells assessed as beta-arrestin2 recruitment at 1 uM incubated for 90 mins by chemiluminescence based assay relative to control
Format: functional, cell-based
Conditions: filed as agonist
reported.property: Activity (%)

molecule="CC(C)Oc1ccc(COc2ccc3c(c2)CCN(S(=O)(=O)CCCO)C3C)cc1C#N (configuration not stated)" reported_property=Activity endpoint_result=45
molecule=CC(C)Oc1ccc(COc2ccc3c(c2)CCN(C(=O)CCC(=O)N(C)C)C3)cc1C#N reported_property=Activity endpoint_result=76
molecule=CC(C)Oc1ccc(COc2ccc3c(c2)CCN(C(=O)CCC(N)=O)C3)cc1C#N reported_property=Activity endpoint_result=91
molecule=CC(C)Oc1ccc(COc2ccc3c(c2)CCN(CCC(=O)O)C3)cc1C#N reported_property=Activity endpoint_result=98
molecule=COC(=O)CCN1CCc2cc(OCc3ccc(OC(C)C)c(C#N)c3)ccc2C1 reported_property=Activity endpoint_result=91
molecule=CC(C)Oc1ccc(COc2ccc3c(c2)OCCN(S(=O)(=O)CCC(=O)O)C3)cc1C#N reported_property=Activity endpoint_result=109
molecule=CC(C)Oc1ccc(COc2ccc3c(c2)CCCN(S(=O)(=O)CC(=O)O)C3)cc1C#N reported_property=Activity endpoint_result=94
molecule=CC(C)Oc1ccc(COc2ccc3c(n2)CCN(S(=O)(=O)CCCO)C3)cc1C#N reported_property=Activity endpoint_result=118
molecule=CC(C)Oc1ccc(COc2ccc3c(c2)CCN(S(=O)(=O)CCC(=O)N(C)C)C3)cc1C#N reported_property=Activity endpoint_result=98
molecule=CC(C)Oc1ccc(COc2ccc3c(c2)CCN(C(=O)CCC(=O)O)C3)cc1C#N reported_property=Activity endpoint_result=81
molecule=CC(C)Oc1ccc(COc2ccc3c(c2)CCN(C(=O)CCCNS(C)(=O)=O)C3)cc1C#N reported_property=Activity endpoint_result=68
molecule=CC(C)Oc1ccc(COc2ccc3c(c2)OCCN(S(=O)(=O)CCO)C3)cc1C#N reported_property=Activity endpoint_result=96
molecule=CC(C)Oc1ccc(COc2ccc3c(c2)CCN(C(=O)CCNS(C)(=O)=O)C3)cc1C#N reported_property=Activity endpoint_result=122
molecule="CC(C)Oc1ccc(COc2ccc3c(c2)CCN(S(=O)(=O)CCC(=O)O)C3C)cc1C#N (configuration not stated)" reported_property=Activity endpoint_result=77
molecule=CC(=O)NCCC(=O)N1CCc2cc(OCc3ccc(OC(C)C)c(C#N)c3)ccc2C1 reported_property=Activity endpoint_result=117
molecule=CC(C)Oc1ccc(COc2ccc3c(c2)CCN(C(=O)CC(=O)O)C3)cc1C#N reported_property=Activity endpoint_result=42
molecule="CC(C)Oc1ccc(COc2ccc3c(c2)CCN(CCC(=O)O)C3C)cc1C#N (configuration not stated)" reported_property=Activity endpoint_result=74
molecule=CC(C)Oc1ccc(COc2ccc3c(c2)OCCN(S(=O)(=O)CCCO)C3)cc1C#N reported_property=Activity endpoint_result=92
molecule=COC(=O)CCCN1CCc2cc(OCc3ccc(OC(C)C)c(C#N)c3)ccc2C1 reported_property=Activity endpoint_result=91
molecule=CC(C)Oc1ccc(COc2ccc3c(c2)CCN(S(=O)(=O)CCO)C3)cc1C#N reported_property=Activity endpoint_result=88
molecule=CC(C)Oc1ccc(COc2ccc3c(c2)CCCN(S(=O)(=O)CCC(=O)O)C3)cc1C#N reported_property=Activity endpoint_result=81
molecule=CC(C)Oc1ccc(COc2ccc3c(c2)CCN(S(=O)(=O)CC(=O)O)C3)cc1C#N reported_property=Activity endpoint_result=92
molecule=CNC(=O)CCS(=O)(=O)N1CCc2cc(OCc3ccc(OC(C)C)c(C#N)c3)ccc2C1 reported_property=Activity endpoint_result=107
molecule=CC(C)Oc1ccc(COc2ccc3c(n2)CCN(S(=O)(=O)CCC(=O)O)C3)cc1C#N reported_property=Activity endpoint_result=82
molecule=CC(C)Oc1ccc(COc2ccc3c(c2)CCN(CCCC(=O)O)C3)cc1C#N reported_property=Activity endpoint_result=91
molecule="CC(C)Oc1ccc(COc2ccc3c(c2)CCN(C(=O)CCC(=O)O)C3C)cc1C#N (configuration not stated)" reported_property=Activity endpoint_result=40
molecule=CC(C)Oc1ccc(COc2ccc3c(c2)CCN(CC(=O)O)C3)cc1C#N reported_property=Activity endpoint_result=67
molecule=CC(=O)NCCCC(=O)N1CCc2cc(OCc3ccc(OC(C)C)c(C#N)c3)ccc2C1 reported_property=Activity endpoint_result=105
molecule=COC(=O)CS(=O)(=O)N1CCc2cc(OCc3ccc(OC(C)C)c(C#N)c3)ccc2C1 reported_property=Activity endpoint_result=89
molecule=CC(C)Oc1ccc(COc2ccc3c(c2)CCCN(S(=O)(=O)CCCO)C3)cc1C#N reported_property=Activity endpoint_result=81
molecule=CC(C)Oc1ccc(COc2ccc3c(c2)CCN(S(=O)(=O)CCCO)C3)cc1C#N reported_property=Activity endpoint_result=72
molecule=COC(=O)CCS(=O)(=O)N1CCc2cc(OCc3ccc(OC(C)C)c(C#N)c3)ccc2C1 reported_property=Activity endpoint_result=103
molecule=CC(C)Oc1ccc(COc2ccc3c(c2)CCCN(S(=O)(=O)CCO)C3)cc1C#N reported_property=Activity endpoint_result=116
molecule=CC(C)Oc1ccc(COc2ccc3c(c2)OCCN(S(=O)(=O)CC(=O)O)C3)cc1C#N reported_property=Activity endpoint_result=91
molecule=CC(C)Oc1ccc(COc2ccc3c(c2)CCN(C(=O)CCO)C3)cc1C#N reported_property=Activity endpoint_result=88
molecule=CNC(=O)CCC(=O)N1CCc2cc(OCc3ccc(OC(C)C)c(C#N)c3)ccc2C1 reported_property=Activity endpoint_result=82
molecule=CC(C)Oc1ccc(COc2ccc3c(c2)CCN(S(=O)(=O)CCC(=O)O)C3)cc1C#N reported_property=Activity endpoint_result=125
